These data points were gathered from the NIST ThermoML archive (doi:10.1021/je9004992).

Test: molar heat capacity at constant pressure
Conditions: 283.15 K; 60000 kPa; Liquid; Small sample (50 mg) DSC
Each entry below lists one item and its recorded molar heat capacity at constant pressure value.
OUTCOME_MEASURE: molar heat capacity at constant pressure (J/K/mol)

| COMPOUND | VALUE_OBSERVED |
| --- | --- |
| CCn1cc[n+](C)c1.F[B-](F)(F)F [1-ethyl-3-methylimidazolium tetrafluoroborate] | 301 |
| CCCCCCCC[n+]1ccn(C)c1.F[B-](F)(F)F [1-methyl-3-octylimidazolium tetrafluoroborate] | 489.27 |
| CCCCCCn1cc[n+](C)c1.F[B-](F)(F)F [1-hexyl-3-methylimidazolium tetrafluoroborate] | 424.07 |
| CCCCn1cc[n+](C)c1.F[B-](F)(F)F [1-butyl-3-methylimidazolium tetrafluoroborate] | 361.11 |

* * *

Assay: molar heat capacity at constant pressure
Details: 288.15 K; 40000 kPa; Liquid; Small sample (50 mg) DSC
Numbers after ± are expanded uncertainties.
OUTCOME_MEASURE: molar heat capacity at constant pressure

| COMPOUND | OUTCOME_MEASURE | VALUE_OBSERVED |
| --- | --- | --- |
| CCCCn1cc[n+](C)c1.F[B-](F)(F)F [1-butyl-3-methylimidazolium tetrafluoroborate] | molar heat capacity at constant pressure | 362.64 ± 5.6 J/K/mol |
| CCCCCCn1cc[n+](C)c1.F[B-](F)(F)F [1-hexyl-3-methylimidazolium tetrafluoroborate] | molar heat capacity at constant pressure | 425.84 ± 6.6 J/K/mol |
| CCn1cc[n+](C)c1.F[B-](F)(F)F [1-ethyl-3-methylimidazolium tetrafluoroborate] | molar heat capacity at constant pressure | 302.25 ± 4.7 J/K/mol |
| CCCCCCCC[n+]1ccn(C)c1.F[B-](F)(F)F [1-methyl-3-octylimidazolium tetrafluoroborate] | molar heat capacity at constant pressure | 493.09 ± 7.6 J/K/mol |

* * *

Each entry below lists one item and its recorded molar heat capacity at constant pressure value.
Experiment: molar heat capacity at constant pressure
Details: 313.15 K; 12000 kPa; Liquid; Small sample (50 mg) DSC

| COMPOUND | UNIT_OF_MEASURE | molar heat capacity at constant pressure |
| --- | --- | --- |
| CCn1cc[n+](C)c1.F[B-](F)(F)F [1-ethyl-3-methylimidazolium tetrafluoroborate] | J/K/mol | 310.42 |
| CCCCn1cc[n+](C)c1.F[B-](F)(F)F [1-butyl-3-methylimidazolium tetrafluoroborate] | J/K/mol | 372.78 |
| CCCCCCn1cc[n+](C)c1.F[B-](F)(F)F [1-hexyl-3-methylimidazolium tetrafluoroborate] | J/K/mol | 438 |
| CCCCCCCC[n+]1ccn(C)c1.F[B-](F)(F)F [1-methyl-3-octylimidazolium tetrafluoroborate] | J/K/mol | 509.36 |

* * *

Assay: molar heat capacity at constant pressure
Conditions: 323.15 K; 60000 kPa; Liquid; Small sample (50 mg) DSC
Numbers after ± are expanded uncertainties.

| MOLECULE | molar heat capacity at constant pressure |
| --- | --- |
| CCn1cc[n+](C)c1.F[B-](F)(F)F [1-ethyl-3-methylimidazolium tetrafluoroborate] | 315.08 ± 4.9 J/K/mol |
| CCCCCCn1cc[n+](C)c1.F[B-](F)(F)F [1-hexyl-3-methylimidazolium tetrafluoroborate] | 444.49 ± 6.9 J/K/mol |
| CCCCCCCC[n+]1ccn(C)c1.F[B-](F)(F)F [1-methyl-3-octylimidazolium tetrafluoroborate] | 514.45 ± 8 J/K/mol |
| CCCCn1cc[n+](C)c1.F[B-](F)(F)F [1-butyl-3-methylimidazolium tetrafluoroborate] | 378.05 ± 5.9 J/K/mol |

* * *

Assay: molar heat capacity at constant pressure
Conditions: 293.15 K; 12000 kPa; Liquid; Small sample (50 mg) DSC
OUTCOME_MEASURE: molar heat capacity at constant pressure (J/K/mol)

| COMPOUND | OUTCOME_MEASURE | VALUE_OBSERVED |
| --- | --- | --- |
| CCCCCCn1cc[n+](C)c1.F[B-](F)(F)F [1-hexyl-3-methylimidazolium tetrafluoroborate] | molar heat capacity at constant pressure | 427.59 |
| CCCCCCCC[n+]1ccn(C)c1.F[B-](F)(F)F [1-methyl-3-octylimidazolium tetrafluoroborate] | molar heat capacity at constant pressure | 496.78 |
| CCn1cc[n+](C)c1.F[B-](F)(F)F [1-ethyl-3-methylimidazolium tetrafluoroborate] | molar heat capacity at constant pressure | 303.41 |
| CCCCn1cc[n+](C)c1.F[B-](F)(F)F [1-butyl-3-methylimidazolium tetrafluoroborate] | molar heat capacity at constant pressure | 364.27 |

* * *

Each entry below lists one item and its recorded molar heat capacity at constant pressure value.
Assay: molar heat capacity at constant pressure
Settings: 303.15 K; 14000 kPa; Liquid; Small sample (50 mg) DSC
Numbers after ± are expanded uncertainties.
OUTCOME_MEASURE: molar heat capacity at constant pressure

| COMPOUND | VALUE_OBSERVED |
| --- | --- |
| CCn1cc[n+](C)c1.F[B-](F)(F)F [1-ethyl-3-methylimidazolium tetrafluoroborate] | 306.8 ± 4.8 J/K/mol |
| CCCCn1cc[n+](C)c1.F[B-](F)(F)F [1-butyl-3-methylimidazolium tetrafluoroborate] | 368.4 ± 5.7 J/K/mol |
| CCCCCCn1cc[n+](C)c1.F[B-](F)(F)F [1-hexyl-3-methylimidazolium tetrafluoroborate] | 432.61 ± 6.7 J/K/mol |
| CCCCCCCC[n+]1ccn(C)c1.F[B-](F)(F)F [1-methyl-3-octylimidazolium tetrafluoroborate] | 503.48 ± 7.8 J/K/mol |

* * *

Each entry below lists one item and its recorded molar heat capacity at constant pressure value.
Test: molar heat capacity at constant pressure
Settings: 323.15 K; 100 kPa; Liquid; Small sample (50 mg) DSC
OUTCOME_MEASURE: molar heat capacity at constant pressure (J/K/mol)

| COMPOUND | OUTCOME_MEASURE | VALUE_OBSERVED |
| --- | --- | --- |
| CCCCCCCC[n+]1ccn(C)c1.F[B-](F)(F)F [1-methyl-3-octylimidazolium tetrafluoroborate] | molar heat capacity at constant pressure | 514.41 |
| CCn1cc[n+](C)c1.F[B-](F)(F)F [1-ethyl-3-methylimidazolium tetrafluoroborate] | molar heat capacity at constant pressure | 314.18 |
| CCCCn1cc[n+](C)c1.F[B-](F)(F)F [1-butyl-3-methylimidazolium tetrafluoroborate] | molar heat capacity at constant pressure | 377.29 |
| CCCCCCn1cc[n+](C)c1.F[B-](F)(F)F [1-hexyl-3-methylimidazolium tetrafluoroborate] | molar heat capacity at constant pressure | 443.69 |

* * *

Experiment: molar heat capacity at constant pressure
Settings: 313.15 K; 10000 kPa; Liquid; Small sample (50 mg) DSC

| COMPOUND | UNIT_OF_MEASURE | molar heat capacity at constant pressure |
| --- | --- | --- |
| CCCCn1cc[n+](C)c1.F[B-](F)(F)F [1-butyl-3-methylimidazolium tetrafluoroborate] | J/K/mol | 372.76 |
| CCCCCCCC[n+]1ccn(C)c1.F[B-](F)(F)F [1-methyl-3-octylimidazolium tetrafluoroborate] | J/K/mol | 509.37 |
| CCn1cc[n+](C)c1.F[B-](F)(F)F [1-ethyl-3-methylimidazolium tetrafluoroborate] | J/K/mol | 310.38 |
| CCCCCCn1cc[n+](C)c1.F[B-](F)(F)F [1-hexyl-3-methylimidazolium tetrafluoroborate] | J/K/mol | 437.97 |

* * *

Each entry below lists one item and its recorded molar heat capacity at constant pressure value.
Experiment: molar heat capacity at constant pressure
Settings: 323.15 K; 12000 kPa; Liquid; Small sample (50 mg) DSC

| MOLECULE | molar heat capacity at constant pressure / J/K/mol |
| --- | --- |
| CCn1cc[n+](C)c1.F[B-](F)(F)F [1-ethyl-3-methylimidazolium tetrafluoroborate] | 314.36 |
| CCCCCCCC[n+]1ccn(C)c1.F[B-](F)(F)F [1-methyl-3-octylimidazolium tetrafluoroborate] | 514.42 |
| CCCCn1cc[n+](C)c1.F[B-](F)(F)F [1-butyl-3-methylimidazolium tetrafluoroborate] | 377.44 |
| CCCCCCn1cc[n+](C)c1.F[B-](F)(F)F [1-hexyl-3-methylimidazolium tetrafluoroborate] | 443.85 |

* * *

Assay: molar heat capacity at constant pressure
Settings: 318.15 K; 4000 kPa; Liquid; Small sample (50 mg) DSC
± gives the expanded uncertainty stated by the source.
OUTCOME_MEASURE: molar heat capacity at constant pressure

| MOLECULE | OUTCOME_MEASURE | VALUE_OBSERVED |
| --- | --- | --- |
| CCCCCCCC[n+]1ccn(C)c1.F[B-](F)(F)F [1-methyl-3-octylimidazolium tetrafluoroborate] | molar heat capacity at constant pressure | 512 ± 7.9 J/K/mol |
| CCCCCCn1cc[n+](C)c1.F[B-](F)(F)F [1-hexyl-3-methylimidazolium tetrafluoroborate] | molar heat capacity at constant pressure | 440.75 ± 6.8 J/K/mol |
| CCCCn1cc[n+](C)c1.F[B-](F)(F)F [1-butyl-3-methylimidazolium tetrafluoroborate] | molar heat capacity at constant pressure | 374.99 ± 5.8 J/K/mol |
| CCn1cc[n+](C)c1.F[B-](F)(F)F [1-ethyl-3-methylimidazolium tetrafluoroborate] | molar heat capacity at constant pressure | 312.23 ± 4.8 J/K/mol |
